Biological target: Nitric oxide synthase, inducible (Mus musculus, UniProt P29477)
Sequence (P29477 whole entry): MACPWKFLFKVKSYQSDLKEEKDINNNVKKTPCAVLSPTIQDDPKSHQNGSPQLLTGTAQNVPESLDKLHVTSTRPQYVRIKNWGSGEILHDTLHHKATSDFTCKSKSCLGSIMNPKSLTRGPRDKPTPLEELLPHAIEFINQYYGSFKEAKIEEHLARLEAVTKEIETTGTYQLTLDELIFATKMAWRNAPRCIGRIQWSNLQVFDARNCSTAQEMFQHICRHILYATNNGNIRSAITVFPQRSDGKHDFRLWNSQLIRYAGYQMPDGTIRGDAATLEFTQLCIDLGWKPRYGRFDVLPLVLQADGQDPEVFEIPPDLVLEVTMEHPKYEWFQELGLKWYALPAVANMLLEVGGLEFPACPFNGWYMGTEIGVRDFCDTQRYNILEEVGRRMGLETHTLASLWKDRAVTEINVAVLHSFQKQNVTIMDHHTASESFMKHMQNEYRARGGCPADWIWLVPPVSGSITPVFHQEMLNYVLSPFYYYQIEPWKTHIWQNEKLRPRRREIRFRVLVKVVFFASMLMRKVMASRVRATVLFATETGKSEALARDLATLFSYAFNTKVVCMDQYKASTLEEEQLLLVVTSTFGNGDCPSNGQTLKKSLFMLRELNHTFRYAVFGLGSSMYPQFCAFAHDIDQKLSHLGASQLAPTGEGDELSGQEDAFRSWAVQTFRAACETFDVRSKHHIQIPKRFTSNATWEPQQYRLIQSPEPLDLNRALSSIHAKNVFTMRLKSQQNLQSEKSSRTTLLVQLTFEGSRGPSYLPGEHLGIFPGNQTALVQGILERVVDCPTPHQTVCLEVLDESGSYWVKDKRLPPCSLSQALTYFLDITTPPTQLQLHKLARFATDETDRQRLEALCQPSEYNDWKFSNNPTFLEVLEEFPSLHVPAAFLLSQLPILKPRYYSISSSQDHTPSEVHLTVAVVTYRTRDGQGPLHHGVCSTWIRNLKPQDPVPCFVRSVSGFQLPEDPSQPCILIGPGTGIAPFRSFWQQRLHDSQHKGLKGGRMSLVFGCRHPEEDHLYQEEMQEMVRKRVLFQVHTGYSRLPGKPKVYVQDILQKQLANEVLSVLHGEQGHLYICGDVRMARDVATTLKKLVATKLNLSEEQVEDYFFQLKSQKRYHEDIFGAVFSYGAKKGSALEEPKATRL
pKi: −log10 of the molar value.
TEST_READOUT: pKi

1) Cc1cc(N)nc(COCCOCc2cc(C)cc(N)n2)c1
5.53

Where these numbers come from: ChEMBL document CHEMBL2429788
